Give measured IC50 for each item. Keep answers brief.
- assay_target: Human immunodeficiency virus type 1 integrase (Human immunodeficiency virus 1)
- Sequence (Q7ZJM1 whole entry): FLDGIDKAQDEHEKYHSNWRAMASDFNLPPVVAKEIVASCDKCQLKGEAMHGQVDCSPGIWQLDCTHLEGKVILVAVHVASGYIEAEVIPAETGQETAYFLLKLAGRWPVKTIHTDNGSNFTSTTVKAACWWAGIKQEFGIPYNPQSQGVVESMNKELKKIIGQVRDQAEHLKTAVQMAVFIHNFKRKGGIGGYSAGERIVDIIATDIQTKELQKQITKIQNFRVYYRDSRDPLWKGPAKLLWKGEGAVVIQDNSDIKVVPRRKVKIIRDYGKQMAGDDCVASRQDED
- protocol_details: Inhibition of recombinant HIV1 integrase mediated-disintegration activity
Give the number first and the unit second.

The molecule listed as CC1(C)OC(=O)C2(C(=O)O1)[C@@H](c1ccco1)CC(=O)C[C@H]2c1c[nH]c2ccccc12 shows IC50 equal to 19.2 µM

The molecule listed as CC1(C)OC(=O)C2(C(=O)O1)[C@@H](c1ccco1)CC(=O)C[C@H]2c1ccco1 shows IC50 equal to 81.4 µM

The molecule listed as CCOC(=O)C1=C(O)CCC2(C(=O)OC(C)(C)OC2=O)[C@H]1c1ccco1 shows IC50 equal to 213 µM
